# target.system: Protein phosphatase EYA2 (Homo sapiens) (UniProt O00167)
# Sequence (O00167 whole entry, looked up): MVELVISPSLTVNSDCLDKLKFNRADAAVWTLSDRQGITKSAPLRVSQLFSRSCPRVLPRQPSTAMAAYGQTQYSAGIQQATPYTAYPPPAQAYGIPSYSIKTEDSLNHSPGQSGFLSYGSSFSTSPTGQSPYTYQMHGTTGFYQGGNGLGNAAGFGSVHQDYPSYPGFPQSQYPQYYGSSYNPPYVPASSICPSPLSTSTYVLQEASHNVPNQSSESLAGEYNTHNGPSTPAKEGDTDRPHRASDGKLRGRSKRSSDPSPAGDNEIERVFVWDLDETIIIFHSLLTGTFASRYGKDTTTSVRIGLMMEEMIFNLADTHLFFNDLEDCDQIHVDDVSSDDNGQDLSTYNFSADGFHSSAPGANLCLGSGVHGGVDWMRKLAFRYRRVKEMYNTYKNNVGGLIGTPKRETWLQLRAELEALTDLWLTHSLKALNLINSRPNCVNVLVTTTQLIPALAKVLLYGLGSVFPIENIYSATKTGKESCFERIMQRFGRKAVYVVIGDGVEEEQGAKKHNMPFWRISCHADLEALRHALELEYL
# protocol.text: qHTS for Inhibitors of the Phosphatase Activity of Eya2: Confirmatory Assay for Cherry-picked Compounds; note: nearly all actives have a fitted effect of over 65% in size
# study.conditions: purified EYA2 phosphatase activity, qHTS confirmation; series mostly up to 46.1 µM
# Source text: The Eya protein family is an essential co-activator of the Six1 transcription factor. Six1 is a developmental gene that is abnormally re-expressed in a large percentage of breast cancers. […] A 1536 well format, fluorescence based qHTS assay was developed and used to target the phosphatase activity of Eya2 (AID 488837). […] This assay assessed the activity of the primary screen cherry-picked compounds against Eya2. […]
Hit rate of the full screen: of about 1,300 compounds, about 460 (35%) were called active. Another 39% or so got no clear call; they are omitted. Calls come from the whole dose curve; as a rule, active = well fitted inhibition curve with a large enough effect; inconclusive = small, poorly fitted or top-dose-only effect; inactive = flat fitted curve, though single readings scatter. The list shows a part of the results.
Write down the outcome that applies. Available outcomes: active, inactive

Recorded results for 3 molecules are shown here.
Given Cn1c(=O)c2cc(S(=O)(=O)Nc3cccc(F)c3)ccc2n(C)c1=O , state the outcome it received in this test. inactive

Given O=S(=O)(Nc1cccc(-c2cn3cccnc3n2)c1)c1ccc(F)cc1 , state the outcome it received in this test. active

Given O=C(Nc1ccccc1Cl)N1CCN(c2ccc3nnc(-c4ccccc4)n3n2)CC1 , state the outcome it received in this test. active

***
Given O=[N+]([O-])c1ccc(/C=C2\C=Cc3ccccc32)cc1 , state the outcome it received in this test. active

Given CN(C)c1ccc(/C=C2\C=Cc3ccccc32)cc1N , state the outcome it received in this test. active

Given O=S(=O)(Nc1cccc(-c2cn3cccnc3n2)c1)c1ccccc1 , state the outcome it received in this test. active

Given COc1cccc(N2CCN(c3ccc4nnc(CCC(=O)Nc5cccc(C(C)=O)c5)n4n3)CC2)c1 , state the outcome it received in this test. inactive

Given O=S(=O)(c1cc(O)ccc1O)c1cccc2c(S(=O)(=O)c3cc(O)ccc3O)cccc12 , state the outcome it received in this test. active

###

# target.system: Protein phosphatase EYA2 (Homo sapiens)
# protocol.text: qHTS for Inhibitors of the Phosphatase Activity of Eya2: Confirmatory Assay for Cherry-picked Compounds; note: nearly all actives have a fitted effect of over 65% in size
# study.conditions: purified EYA2 phosphatase activity, qHTS confirmation; series mostly up to 46.1 µM
Among all 1,300 compounds or so, about 460 (35%) were called active. Another 39% or so got no clear call; they are omitted. Calls follow the shape of the dose curve; as a rule, active = well fitted inhibition curve with a large enough effect; inconclusive = small, poorly fitted or top-dose-only effect; inactive = flat fitted curve, though single readings scatter. The list shows a part of the results.
Write down the outcome that applies. Available outcomes: t (active), f (inactive)

Recorded results for 3 compounds are shown here.
Given O=S(=O)(c1ccc(Cl)s1)N1CCc2ccccc2C1 , state the outcome it received in this test. f

Given Cc1ccc(Nc2nnc(SCC(=O)c3c(N)n(C4CC4)c(=O)[nH]c3=O)s2)cc1C , state the outcome it received in this test. f

Given CCn1c(SCC(=O)N2CCN(c3ccccc3)CC2)nc2c(c1=O)SC(C)C2 (stereo unspecified) , state the outcome it received in this test. f

***
Given O=C(O)/C=C/C(=O)Nc1ccc2c(c1)C(=O)c1ccccc1C2=O , state the outcome it received in this test. t

Given Nc1ccccc1C(=O)NNc1c2ccccc2nc2ccccc12 , state the outcome it received in this test. t

Given O=[N+]([O-])c1ccccc1Nc1nc(-c2cccnc2)cs1 , state the outcome it received in this test. t

###

# target.system: Protein phosphatase EYA2 (Homo sapiens)
# protocol.text: qHTS for Inhibitors of the Phosphatase Activity of Eya2: Confirmatory Assay for Cherry-picked Compounds; note: nearly all actives have a fitted effect of over 65% in size
# study.conditions: purified EYA2 phosphatase activity, qHTS confirmation; series mostly up to 46.1 µM
Screen size: about 1,300 compounds; about 460 (35%) were called active. Another 39% or so got no clear call; they are omitted. Calls follow the shape of the dose curve; as a rule, active = well fitted inhibition curve with a large enough effect; inconclusive = small, poorly fitted or top-dose-only effect; inactive = flat fitted curve, though single readings scatter. This is one part of the list.
Write down the outcome that applies. Available outcomes: TRUE (active), FALSE (inactive)

Recorded results for 4 molecules are shown here.
Given C=C(C)COc1ccc(-c2nc(N)nc(C)c2-c2ccc(OC)cc2)c(O)c1 , state the outcome it received in this test. TRUE

Given CCc1ccc(-c2csc(NC(=O)C3CC(=O)N(c4ccc5c(c4)OCCO5)C3)n2)cc1 (stereo not given) , state the outcome it received in this test. FALSE

Given COc1ccc(C(=O)Nc2cc(OC)c(NC(=O)Nc3ccccc3)cc2OC)cc1 , state the outcome it received in this test. FALSE

Given COc1ccc(-n2nc(C)cc2Nc2ccccc2C(=O)O)cc1 , state the outcome it received in this test. TRUE

// switching to the query molecule
Given Cc1cc(Nc2ccccc2C(=O)O)n(-c2cccc(Cl)c2)n1 , state the outcome it received in this test. TRUE

###

# target.system: Protein phosphatase EYA2 (Homo sapiens)
# protocol.text: qHTS for Inhibitors of the Phosphatase Activity of Eya2: Confirmatory Assay for Cherry-picked Compounds; note: nearly all actives have a fitted effect of over 65% in size
# study.conditions: purified EYA2 phosphatase activity, qHTS confirmation; series mostly up to 46.1 µM
The whole screen tested about 1,300 compounds, of which about 460 (35%) were called active. Inconclusive results (about 39%) are left out. The call rests on the fitted dose curve; in most records, active means well fitted inhibition curve with a large enough effect; inconclusive means small, poorly fitted or top-dose-only effect; inactive means flat fitted curve, though single readings scatter. Some of the results follow.
Write down the outcome that applies. Available outcomes: active, inactive

Given Cc1c(CCC(=O)O)c(=O)oc2c(C)c(OCc3cc4c(cc3Cl)OCO4)ccc12 , state the outcome it received in this test. active

Given CC(=O)Nc1ccc(OC(=O)c2cc3cc(Br)ccc3oc2=O)cc1 , state the outcome it received in this test. active

Given COC(=O)c1sc2cc(C(F)(F)F)cnc2c1-c1cccnc1 , state the outcome it received in this test. inactive

Given C[C@H](CCC(=O)NCC(=O)O)[C@H]1CC[C@H]2[C@@H]3[C@H](O)C[C@@H]4C[C@H](O)CC[C@]4(C)[C@H]3C[C@H](O)[C@]12C , state the outcome it received in this test. inactive

Given COc1ccc(S(=O)(=O)N2CCC3CC2c2cc(N4CCOCC4)ccc23)cc1 (stereo not given) , state the outcome it received in this test. inactive

Given Cc1cc(C)c2nc(SCC(=O)N(C)C3CCS(=O)(=O)C3)cc(C)c2c1 (stereo not given) , state the outcome it received in this test. inactive

###

# target.system: Protein phosphatase EYA2 (Homo sapiens)
# protocol.text: qHTS for Inhibitors of the Phosphatase Activity of Eya2: Confirmatory Assay for Cherry-picked Compounds; note: nearly all actives have a fitted effect of over 65% in size
# study.conditions: purified EYA2 phosphatase activity, qHTS confirmation; series mostly up to 46.1 µM
# Excerpt: The Eya protein family is an essential co-activator of the Six1 transcription factor. Six1 is a developmental gene that is abnormally re-expressed in a large percentage of breast cancers. […] A 1536 well format, fluorescence based qHTS assay was developed and used to target the phosphatase activity of Eya2 (AID 488837). […] This assay assessed the activity of the primary screen cherry-picked compounds against Eya2. […]
Hit rate of the full screen: of about 1,300 compounds, about 460 (35%) were called active. Another 39% or so got no clear call; they are omitted. The call rests on the fitted dose curve; in most records, active means well fitted inhibition curve with a large enough effect; inconclusive means small, poorly fitted or top-dose-only effect; inactive means flat fitted curve, though single readings scatter. The list shows a part of the results.
Write down the outcome that applies. Available outcomes: 1 (yes) = active, 0 (no) = inactive

Given O=C(CSc1nnc(CNC(=O)c2ccccc2)o1)Nc1nccs1 , state the outcome it received in this test. 0 (no)

Given COc1ccccc1NC(=O)NCCN1CCN(C(=O)Nc2ccccc2OC)CC1 , state the outcome it received in this test. 0 (no)

***
Given O=C(Nc1nc(-c2ccco2)c(-c2ccco2)s1)C1CC(=O)N(c2ccc3c(c2)OCCO3)C1 (stereo not given) , state the outcome it received in this test. 1 (yes)

Given Oc1ccc(-c2nc3c4c(ncn3n2)-c2ccccc2CC42CCCC2)cc1 , state the outcome it received in this test. 0 (no)

Given C/C(=C1/C=Nc2ccccc21)c1ccc(N(C)C)cc1 , state the outcome it received in this test. 1 (yes)

###

# target.system: Protein phosphatase EYA2 (Homo sapiens)
# protocol.text: qHTS for Inhibitors of the Phosphatase Activity of Eya2: Confirmatory Assay for Cherry-picked Compounds; note: nearly all actives have a fitted effect of over 65% in size
# study.conditions: purified EYA2 phosphatase activity, qHTS confirmation; series mostly up to 46.1 µM
Among all 1,300 compounds or so, about 460 (35%) were called active. Another 39% or so got no clear call; they are omitted. Calls come from the whole dose curve; as a rule, active = well fitted inhibition curve with a large enough effect; inconclusive = small, poorly fitted or top-dose-only effect; inactive = flat fitted curve, though single readings scatter. The list shows a part of the results.
Write down the outcome that applies. Available outcomes: active, inactive

Recorded results for 3 compounds are shown here.
Given Cc1ccc(-n2[nH]c(C)c(C=Nc3ccc(S(=O)(=O)Nc4nccs4)cc3)c2=O)cc1C , state the outcome it received in this test. active

Given Cc1nc([N+](=O)[O-])cn1CC(O)c1ccc2c(c1)OCO2 (configuration not stated) , state the outcome it received in this test. inactive

Given O=c1cc2ncc(-n3cc([N+](=O)[O-])cn3)cn2[nH]1 , state the outcome it received in this test. inactive

***
Given COc1ccc(C(=O)C2CCCN(C(=O)c3cccc(N(C)C)c3)C2)cc1OC (configuration not stated) , state the outcome it received in this test. inactive

Given Fc1ccc(-c2ccc(CNCc3ccccn3)o2)cc1 , state the outcome it received in this test. active

Given NC(=O)c1c(NC(=O)c2ccc(N3C(=O)CCC3=O)cc2)sc2c1CCCC2 , state the outcome it received in this test. active

Given O=C(O)c1c2c(nc3ccc(S(=O)(=O)N4CCC(C(=O)NC5CCCC5)CC4)cc13)CCCCC2 , state the outcome it received in this test. inactive

Measured values drawn from PubChem BioAssay AID720540 for this set.
